Where do these numbers come from? They come from ChEMBL document CHEMBL1275272.

Exercise: state measured MIC for each of the compounds provided.
- Tested on: Trichophyton mentagrophytes
- assay.overview: Antifungal activity against Trichophyton mentagrophytes after 16 to 18 hrs by serial dilution method
- Format: functional
- study.conditions: Trichophyton mentagrophytes

Q) Observed MIC on Trichophyton mentagrophytes for "Cc1cccc(OCc2ccccc2-c2nnc(-c3cccc(Br)c3)o2)c1" , please.
A) 25 µg/mL

Q) For Trichophyton mentagrophytes, provide MIC of "Cc1cccc(OCc2ccccc2-c2nnc(-c3ccccc3)o2)c1" please.
A) 25 µg/mL

Q) Form: Entry = "Cc1cccc(OCc2ccccc2-c2nnc(-c3cccc4ncccc34)o2)c1" | System = Trichophyton mentagrophytes | MIC = ____
A) 25 µg/mL

Q) GET /values?readout=MIC&system=Trichophyton mentagrophytes&item= "Cc1cccc(OCc2ccccc2-c2nnc(-c3ccc(Cl)cc3)o2)c1"
A) 25 µg/mL

Q) Record lookup: for Trichophyton mentagrophytes, what MIC belongs to "COc1cc(-c2nnc(-c3ccccc3COc3ccccc3C)o2)cc(OC)c1OC" ?
A) 6.25 µg/mL

Q) Param readout = MIC; param system = Trichophyton mentagrophytes; param query = "Cc1cccc(OCc2ccccc2-c2nnc(SCc3ccc(Cl)cc3Cl)o2)c1" ; response: value
A) 12.5 µg/mL

Q) // fetch Trichophyton mentagrophytes MIC for "FC(F)(F)c1cccc(NCn2nc(-c3ccccc3COc3ccc(Cl)cc3)oc2=S)c1"
A) 6.25 µg/mL

Q) Give Trichophyton mentagrophytes MIC for "Cc1cccc(CSc2nnc(-c3ccccc3COc3ccc(Cl)cc3)o2)c1"
A) 12.5 µg/mL

Q) Write down the reported MIC of "Cc1ccc(OCc2ccccc2-c2nnc(-c3cccc(Br)c3)o2)cc1" , test system: Trichophyton mentagrophytes.
A) 25 µg/mL

Q) # value lookup — system Trichophyton mentagrophytes, readout MIC, item "CCSc1nnc(-c2ccccc2COc2ccc(C)cc2)o1"
A) 25 µg/mL

Q) Reported MIC for Trichophyton mentagrophytes, given "Cc1cc(C)cc(-c2nnc(-c3ccccc3COc3ccc(Cl)cc3)o2)c1" ?
A) 12.5 µg/mL

* * *

For each entry below, report its MIC value.
- System: Aspergillus flavus
- assay.overview: Antifungal activity against Aspergillus flavus after 16 to 18 hrs by serial dilution method
- Assay type: functional
- study.conditions: Aspergillus flavus

Q) I am curious: what MIC value has been reported for "Cc1ccccc1OCc1ccccc1-c1nnc(-c2ccccc2)o1" ?
A) 25 µg/mL

Q) Can you look up the measured MIC of "Cc1ccc(OCc2ccccc2-c2nn(CNc3cc(C)ccc3Cl)c(=S)o2)cc1" for me?
A) 25 µg/mL

Q) Which measured MIC value corresponds to "Cc1cccc(OCc2ccccc2-c2nn(CNc3cc(C)ccc3Cl)c(=S)o2)c1" ?
A) 25 µg/mL

Q) Quick check: MIC of "Cc1ccc(OCc2ccccc2-c2nnc(-c3cccc4ncccc34)o2)cc1" ?
A) 25 µg/mL

Q) Need MIC, item "Cc1cccc(OCc2ccccc2-c2nnc(-c3cc(C)cc(C)c3)o2)c1"
A) 12.5 µg/mL

Q) Quick one: MIC of "Cc1cccc(OCc2ccccc2-c2nnc(-c3cccc4ncccc34)o2)c1" ?
A) 25 µg/mL

Q) Give the measured MIC of "Cc1ccccc1OCc1ccccc1-c1nnc(-c2ccc(Cl)cc2)o1" .
A) 25 µg/mL

Q) Recorded MIC of "Cc1ccccc1OCc1ccccc1-c1nn(CNc2cccc(C(F)(F)F)c2)c(=S)o1" , please.
A) 6.25 µg/mL

Q) Given "Clc1ccc(OCc2ccccc2-c2nnc(-c3ccccc3)o2)cc1" , state its recorded MIC.
A) 25 µg/mL

Q) What MIC value was documented for this compound, "Cc1cccc(OCc2ccccc2-c2nnc(-c3ccccc3F)o2)c1" ?
A) 12.5 µg/mL

Q) State the recorded MIC for this entry: "COc1cc(-c2nnc(-c3ccccc3COc3ccc(C)cc3)o2)cc(OC)c1OC"
A) 12.5 µg/mL

Q) MIC lookup needed for "COc1cc(-c2nnc(-c3ccccc3COc3ccccc3C)o2)cc(OC)c1OC" , thanks.
A) 6.25 µg/mL

Q) Using the record for "Cc1ccc(Cl)c(NCn2nc(-c3ccccc3COc3ccc(Cl)cc3)oc2=S)c1" , report its MIC.
A) 25 µg/mL

Q) Value lookup for MIC; key = "Cc1ccc(OCc2ccccc2-c2nnc(-c3ccccc3)o2)cc1"
A) 25 µg/mL

Q) I'd like to know its MIC. The compound in question is "Cc1ccc(OCc2ccccc2-c2nn(CN3CCOCC3)c(=S)o2)cc1"
A) 12.5 µg/mL

Q) GET /values?readout=MIC&item= "Cc1ccccc1OCc1ccccc1-c1nnc(SCc2ccccc2)o1"
A) 25 µg/mL

Q) So what does the record say about MIC for "COc1cc(-c2nnc(-c3ccccc3COc3cccc(C)c3)o2)cc(OC)c1OC" ?
A) 12.5 µg/mL

Q) Which value of MIC has been reported for "Cc1ccc(Cl)c(NCn2nc(-c3ccccc3COc3ccccc3C)oc2=S)c1" in the records?
A) 25 µg/mL

Q) I'd like to know its MIC. The compound in question is "Cc1ccc(OCc2ccccc2-c2nnc(SCc3ccc(Cl)cc3Cl)o2)cc1"
A) 6.25 µg/mL

Q) Which MIC reading was recorded for the compound "Cc1ccccc1OCc1ccccc1-c1nnc(SCc2ccc(Cl)cc2Cl)o1" ?
A) 6.25 µg/mL

Q) # MIC lookup, item "FC(F)(F)c1cccc(NCn2nc(-c3ccccc3COc3ccc(Cl)cc3)oc2=S)c1"
A) 6.25 µg/mL

Q) Name the recorded MIC for "Cc1ccccc1OCc1ccccc1-c1nn(CNc2ccc(Cl)cc2C(=O)C(F)(F)F)c(=S)o1" .
A) 25 µg/mL

Q) Consider the compound shown here: "Clc1ccc(CSc2nnc(-c3ccccc3COc3ccc(Cl)cc3)o2)cc1" What is its recorded MIC?
A) 12.5 µg/mL

Q) Requested field: MIC. Item: "Cc1cccc(OCc2ccccc2-c2nnc(-c3ccccc3)o2)c1"
A) 25 µg/mL

Q) Find the recorded MIC belonging to "Cc1ccc(OCc2ccccc2-c2nn(CNc3cccc(C(F)(F)F)c3)c(=S)o2)cc1" and report it.
A) 6.25 µg/mL

Q) Returns the measured MIC for the input compound. Input: "Cc1ccc(OCc2ccccc2-c2nnc(SCc3ccccc3)o2)cc1"
A) 25 µg/mL

Q) Endpoint output: MIC of "COc1cc(-c2nnc(-c3ccccc3COc3ccc(Cl)cc3)o2)cc(OC)c1OC" . Value?
A) 6.25 µg/mL

Q) Could you share which MIC value was measured for "CCSc1nnc(-c2ccccc2COc2ccccc2C)o1" ?
A) 25 µg/mL

Q) Return reported MIC; argument: "Cc1cccc(OCc2ccccc2-c2nn(CNc3cccc(C(F)(F)F)c3)c(=S)o2)c1"
A) 6.25 µg/mL

Q) May I ask what MIC has been recorded for "Cc1cccc(OCc2ccccc2-c2nnc(-c3ccc(Cl)cc3)o2)c1" ?
A) 25 µg/mL

Q) Item under review: "Clc1ccc(OCc2ccccc2-c2nnc(SCc3ccc(Cl)cc3Cl)o2)cc1" . Reported MIC?
A) 6.25 µg/mL

Q) Quick one: MIC for "Cc1ccc(OCc2ccccc2-c2nnc(-c3ccc(Cl)cc3)o2)cc1" ?
A) 25 µg/mL

Q) Returns the measured MIC for the input compound. Input: "CCSc1nnc(-c2ccccc2COc2cccc(C)c2)o1"
A) 25 µg/mL

Q) Which measured MIC value corresponds to "Clc1ccc(OCc2ccccc2-c2nnc(-c3cccc(Br)c3)o2)cc1" ?
A) 25 µg/mL

Q) Look up MIC for this compound: "S=c1oc(-c2ccccc2COc2ccc(Cl)cc2)nn1CN1CCOCC1"
A) 12.5 µg/mL

* * *

- Test system: Aspergillus fumigatus
- assay.overview: Antifungal activity against Aspergillus fumigatus after 16 to 18 hrs by serial dilution method
- Type: functional
- study.conditions: Aspergillus fumigatus
Please respond with reported MIC for every item in the list.
Give the value, in units of µg/mL, as a plain number.

Q) Return MIC measured with Aspergillus fumigatus given this compound: "Cc1cccc(OCc2ccccc2-c2nnc(SCc3ccccc3)o2)c1"
A) 25

Q) Entry "Cc1ccc(OCc2ccccc2-c2nnc(-c3cc(C)cc(C)c3)o2)cc1" , system Aspergillus fumigatus: what MIC was measured?
A) 12.5

Q) // lookup MIC | system=Aspergillus fumigatus | key= "Cc1ccccc1OCc1ccccc1-c1nnc(-c2ccccc2F)o1"
A) 6.25

Q) Kindly state the measured MIC obtained for "Cc1ccccc1OCc1ccccc1-c1nnc(-c2ccc(Cl)cc2)o1" with Aspergillus fumigatus.
A) 25

Q) Return MIC measured with Aspergillus fumigatus given this compound: "Cc1ccc(OCc2ccccc2-c2nnc(SCc3ccc(Cl)cc3Cl)o2)cc1"
A) 6.25

Q) Param readout= MIC; system= Aspergillus fumigatus; entry= "Cc1ccc(OCc2ccccc2-c2nnc(-c3ccccc3F)o2)cc1" ; returns value.
A) 6.25

Q) Under Aspergillus fumigatus: MIC value of "Cc1cc(C)cc(-c2nnc(-c3ccccc3COc3ccc(Cl)cc3)o2)c1" ?
A) 12.5

Q) Lab note: need MIC with Aspergillus fumigatus for entry "Cc1cccc(OCc2ccccc2-c2nnc(-c3cccc(Br)c3)o2)c1" , please look it up.
A) 25

Q) Identify the measured MIC of "Cc1cccc(OCc2ccccc2-c2nn(CNc3cc(C)ccc3Cl)c(=S)o2)c1" for Aspergillus fumigatus.
A) 25
